Experiment: folding stability dG unfold from chymotrypsin proteolysis; higher = more stable
Attribute Measured: folding stability dG unfold (kcal/mol)

SAGGSAGGSAGGPKTVRIVEYDPETQRVVIELEDGSKVVIEVPPGMSVEELKGKTLTVEPSAGGSAGGSAGG [r7_296_TrROS_Hall]    0.569
SKDPNNEWVVIKFEVTIPVPPGQKPITADEIASQVRQIMQNHGMEITSVEVEYRGNQVTVSVEIVIPKKASA [r9_1134_TrROS]    3.32
GSARFEASAFLAELPFPPQRVLVVLVRGEDGRVRLFVFFPDGSVVEFDLETGRVVRVIDLPDAPLPPGLLES [r1_409_TrMRF]    3.63
SAGGSAGGSAGGSELIFKTEDGYYVKVKLKNGKTIVFPAENLEELKKLNVEKVEVVPAKSAGGSAGGSAGGS [r4_348_TrROS_Hall]    0.831
SAGGWYIRIKEIERNNDGVNIDIQIPDPDDPEFFENIAENLAQKLGMPKENIKIRIEPTPMPPDPEEPSAGG [r13_430_TrROS]    0.0789
SAGGSKKVKIKITKIEIFPNGTIKVTVKNEDGSEVTITITKNKDGKYKIKIKNKKTKKIFEFEIPLSAGGSA [r2_361_TrROS_Hall]    3.1
SAGFSITVDYEPEKGLWTVTFTSPPSTSPLSPEEVKETAREIAEKQGIKYELIEISREGNTWTMTIKVLSAG [r14_556_JUSTAS]    5.48

----------
Assay: folding stability dG unfold (combined trypsin and chymotrypsin); higher = more stable
Listed here are sequences together with their documented folding stability dG unfold.
Attribute Measured: folding stability dG unfold (kcal/mol)

SAGGSAGGSAGGSSVPADTVVELEFKDEKGEPLLITVRVTTKDSGVDRTVLEVRPPELLSAGGSAGGSAGGS [r10_744_JUSTAS]    -0.424
SANTRSIPFPGSADDIVDEIKNLIDANPDVKIRIQPMDGEEYEIDIEGIEKIKVERMPDGWYMITVELPSAG [r14_807_TrROS]    1.16
SAGGEGEILDKKEFTFPDNVKLEVYVFKVGDKYFVKVKTTITVPENPTKPKKPLKKITPEDIKKALEKSAGG [r13_760_TrMRF]    1.5
SAGPKNREIKVRIQFNGNWVEYKMPDNDLKELVKNGGLQIAGVDPEKDEIMIQIPVPPPKPDPEDGKPKSAG [r5_868_TrROS]    0.773
SAGGSAGGSADYFMVVIKYYPPNGEKQEHPFSVPFKDEEDLKDEIKEQAPPGREVEIEIFPMSAGGSAGGSA [r18_60_TrROS]    0.647
SAGGSAGGSAGFKVPPGWKIVNTYRSPESGYPTAILRDPGDNKPLIFDFDNGKIMPAKDISAGGSAGGSAGG [r11_268_TrROS]    -0.178
SAGGSAGGSAGGKIIVYNPETGKPEEVSPEDLEEIIKNTPGPLILKVGEGEIELNAKDISAGGSAGGSAGGS [r10_839_TrMRF]    0.828
SAGGSAGGSANIDIKVEENPGNGYRKVEVTMTVDDLRELFGNEPIPPGEERQIKMTIYLPIPSAGGSAGGSA [r18_327_TrROS]    1.21
SAGGSAGGSAGGMRLVRITTEDGRTITAPVGETITITRPDGSKVKITRVEVFELPPEDLSAGGSAGGSAGGS [r10_20_TrROS_Hall]    1.23
SAGGKKKKLVIKDKKTNKYYEIENAKEIVKIEKVKGKDGKTYYVIYFKKTKKKIVIKTKEDLEKALKSAGGS [r8_206_TrROS_Hall]    1.23
SAMVITIHPDIPLEELAELLGFPEIEDATVEPLNEGIVPATFHIPEDPDKVILIDFNPEPDFALVLVLSSAG [r14_713_TrMRF]    1.98
SAGGKKIEIKEGDTVKLKNATITLNGKTFKIKDAEAKVVKVDKKKKKVIIEITLKNGKKETFVFDIKSAGGS [r8_215_TrROS_Hall]    3.15
SAGGSAGGSAGGPPPGDKIEIIVIKFEPRYDPDGEPKNPRIDSIEVITIPADDPDDLLEASAGGSAGGSAGG [r7_439_TrROS]    0.348
SAGGSAGGMTIEVTFPDGTKLTITLENDGPDTLLATAEVEAPRAGGPSIPKEVAAKLAEELLASSAGGSAGG [r6_234_TrMRF]    1.36
SGKKKIKIYVESIEVFEDGVVKIKVKAIFPDGSEEDVIAEIRVEPDEDGRPHLLVVIRIGDKDFLLVLDASA [r9_271_TrMRF]    2.96
SAGMDVKELAKEAMEKYPPGDKEIEFEIPVGPRPFKVKIDYEPDPENGKPRPKITIENPDNGKKTEFTFSAG [r5_236_TrROS]    0.11
SNVHIHVEPDPDGRVKITLMMPPDNPDEFAEEIAENLGYPVKITDIEPFPFKKNGKPREYYMIEIEIRLPSA [r9_431_TrROS]    2.17
SGLTNLRVEAELVPPGVLRVTFTEGGKPVYELTFTVVVPAPPVVEPVLLPNGVPALVVYDPATGKPVVYPSA [r9_343_TrMRF]    2.86
SAGGSPVVLTKSPDGLLYVVTLTDPANSLDRVKAKVTAYDPNKPVPLGELTIELDPKTGKAVSALSSAGGSA [r2_324_JUSTAS]    0.21
SAGGDPETPTTITAPVDPATGTTTWVVNDGSSTSTIPSSLSLEELKKLGLTKAEPLPDGTLRFTILASAGGS [r8_382_JUSTAS]    0.495
SAGGSAGGSLRLRVTFTVTVTFLDGNRLRPAKVEITVEIELEPIPPELLRPRPLPGDKLEYDLSAGGSAGGS [r12_1031_TrMRF]    3.16
SPVVVTTSPGPDGGARVTIYFPKTGKPIEFDITDPDLVEESTSDPNTRVDIPEEVLRSLAPDLFTGFTTESA [r9_390_TrMRF]    0.362
SGATVTVSKDGRTYTVTVSPNATVTVEVRDPTSTSTYTQTVPPGQPTTVSLPLPSDVSSSVTIASIDVGASA [r9_1152_JUSTAS]    0.592
SAGGMFKGPDGNWKTYKTTKPGLTKSDIGPFVEELVEKFLKDHGLNPENVSAKAEYNPSTGTVNVYVGSAGG [r13_913_TrMRF]    0.576

----------
Experiment: folding stability dG unfold from chymotrypsin proteolysis; higher = more stable
y means recorded folding stability dG unfold is 1 kcal/mol or above; n means it is below 1 kcal/mol.

SLKPGETKTLTLLIRTKDPEKTAEELAEEARKEIEELLPPGVKIEVKVTSVEPLPETGEVDVTVEVTVTASA [r9_706_TrMRF]    y
SAGGSAGGSAEPVRLVVVTPGFPDGPPIPVEELEALLEAEDVTVVDPFTIPELGYVVLLVEASAGGSAGGSA [r18_466_TrMRF]    n
SAGKTRTINFPGFQIQVQRDPDGKKEITIMFDNPEQRKQMIEQNPFLREFIEWAEKDGLKVEIHVMPPKSAG [r14_873_TrROS]    y
SAGGSAGGMVKTYKTDKETAIELAEKIKKQGVKVEITPHPDSTLLTITINEPKIDPKNSPNIIISAGGSAGG [r6_392_JUSTAS]    n
SAGGSVTLSAEFTLPDGSRVRLTVEVLPDGTLRVSAEVEAVPLVPPVRVSRLPDGSLVSDPLGVPLVLSAGG [r13_151_TrMRF]    y
SDRIEIEIWRHPNWWMIKIKVRDDGEPVGTQSFPVDDGMDIEEIADNLLNRNPNYKVEITEIEPMPPPPGSA [r9_364_TrROS]    y
SAGGSAGGSAMKYTVTVTLPNGTTLTLDVGTETEEEAVSETKKLIAEKYPDVKGAKIDLTKESAGGSAGGSA [r18_434_JUSTAS]    y
SAGGSAGGSAKMEIVLEVDTPEEAKEAAKKLAEELKKKGYKVKVEVKKLKNGKYYVKITVDSAGGSAGGSAG [r3_211_TrROS_Hall]    y
SAGDNYREVEYTLKLKNPKGERKLKVKVYYPKGGMFIKIEWPDNGRKIDIPFKSPEDAEETIKDLLDKLSAG [r5_480_TrROS]    y
SAGGSAGMPDPPLEGLKEALREALAANPGEEVTLTVPRADGRTLTVRGTKDGGIEITLPDGTRIALSAGGSA [r15_73_JUSTAS]    y
SAGGSAWIRINSPEMVEAFAKELKDEGWKLKDVDVQRDPNNGNVWFEIPIEHPNNGKKRELEIWFRSAGGSA [r15_123_TrROS]    n
SAGGGMTVETTSKETPLPDGSLRRTETITITEPGGKPLTRTTTKIWDPSTGKVLETRPVSNATVVAESSAGG [r13_1008_JUSTAS]    n
SAGGSAGGSAMPFRVKVPPGSRVLVTRYLPGGLEREEVELSEDEDELVVEAESGVVEVRVLDSAGGSAGGSA [r18_124_TrMRF]    n
SAGGSAGGSMIEVVKFPNGITLEYFPETNTYRAFNPSTNTTTTFPPGVSFEEAVEAVKKGNLVSAGGSAGGS [r12_832_JUSTAS]    y
